Attribution: patent US12275707B2

System: Human LAD2 cells
Assay Procedure: Mast Cell Beta-Hexosaminidase Release Assay (500 nM Cortistatin-14)
Format: cell-based
Test Conditions: read-out: MRGPRX2 Antagonist Activity
pIC50: −log10 of the molar value.
Reported Endpoint: pIC50

Q: What value of pIC50 has been reported for the following compound? N#CCCn1ncc(C(=O)N[C@@H]2CCC[C@H](Nc3cc(C(F)(F)F)nc4ccc(Cl)cc34)C2)c1Cl [Example 4-420]
Result: > 7.00

----------
Test System: human MRGPR X2 (Homo sapiens)
Sequence (Q96LB1 whole entry): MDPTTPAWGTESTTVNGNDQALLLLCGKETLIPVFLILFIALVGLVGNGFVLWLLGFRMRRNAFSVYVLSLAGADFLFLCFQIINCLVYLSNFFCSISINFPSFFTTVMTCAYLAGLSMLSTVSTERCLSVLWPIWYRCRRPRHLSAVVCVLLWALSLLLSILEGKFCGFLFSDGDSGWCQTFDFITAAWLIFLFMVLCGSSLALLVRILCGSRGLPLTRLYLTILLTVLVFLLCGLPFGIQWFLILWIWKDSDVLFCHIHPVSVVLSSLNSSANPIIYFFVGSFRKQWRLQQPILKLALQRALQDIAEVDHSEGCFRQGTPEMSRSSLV
Assay Procedure: MRGPR X2 activity, IP-One Gq HTRF antagonist assay versus 0.3 μM Cortistatin-14
Test Conditions: CHO cells expressing human MRGPR X2; versus 0.3 μM Cortistatin-14 agonist; IP-1 HTRF; read-out: MRGPRX2 Antagonist Activity
pIC50: −log10 of the molar value.
Reported Endpoint: pIC50

Illustrative cases are given below, each with its answer.
> print(dat)
                                   molecule        result
1  CCCc1nnsc1C(=O)N[C@@H]1CCC[C@H](Nc2cc(C(F)(F)F)nc3ccccc23)C1 (racemic)  5.60 to 6.00
2  O=C(N[C@@H]1CCC[C@H](Nc2cc(C(F)(F)F)nc3ccc(Cl)cc23)C1)c1ccn(CCF)c1        > 7.00
3  O=C(N[C@@H]1CCC[C@H](Nc2cc(C(F)(F)F)nc3ccccc23)C1)c1ccc(F)cc1  6.30 to 7.00
4  Nc1ncc(C(=O)N[C@@H]2CCC[C@H](Nc3cc(C(F)(F)F)nc4ccc(Cl)cc34)C2)cn1        > 7.00

From here, focus on the item given below.
Q: For the molecule O=C(N[C@@H]1CCC[C@H](Nc2nc(C(F)(F)F)nc3ccccc23)C1)c1ccc(F)cc1 , what pIC50 is on record?
Result: 6.00 to 6.30

----------
Assay Procedure: Mouse Pharmacokinetics Studies
Assay type: in vivo
Test Conditions: male, C57BL/6, mouse, plasma, po, 50 mg/kg, male C57BL/6 mice, 50 mg/kg oral gavage, non-fasted, read-out: AUC 0-last
Reported Endpoint: AUC(0-t)

Q: Recorded AUC(0-t) for O=C(N[C@@H]1CCC[C@H](Nc2cc(C(F)(F)F)nc3ccc(Cl)cc23)C1)N1CC2(CC2)C1 [Example 6-9] , please?
Result: 42 µM·h

----------
The following compounds are shown together with reported IC50 values.
Test System: human MRGPR X2 (Homo sapiens)
Assay Procedure: MRGPR X2 activity, IP-One Gq HTRF antagonist assay versus 0.3 μM Cortistatin-14
Test Conditions: CHO cells expressing human MRGPR X2; versus 0.3 μM Cortistatin-14 agonist; IP-1 HTRF; read-out: MRGPRX2 Antagonist Activity

Below, each entry is followed by its recorded IC50 result.
> print(dat)
                                   compound           result
1  O=C(N[C@@H]1CCC[C@H](Nc2cc(C(F)(F)F)nc3ccc(Cl)cc23)C1)c1ccc(F)nc1 [Example 4-411]         < 100 nM
2  Cc1nc(N(C)C)ccc1C(=O)N[C@@H]1CCC[C@H](Nc2cc(C(F)(F)F)nc3ccccc23)C1 [Example 4-22]  1000 to 2500 nM
3  CN(C)c1ccc(C(=O)N[C@@H]2CCC[C@H](Nc3cc(C(F)(F)F)nc4ccc(F)cc34)C2)cc1 [Example 4-421]         < 100 nM

Q: Could you share which IC50 value was measured for N#CCCn1ncc(C(=O)N[C@@H]2CCC[C@H](Nc3cc(C(F)(F)F)nc4ccc(Cl)cc34)C2)c1Cl [Example 4-420] ?
Result: < 100 nM

Q: What IC50 value was documented for this compound, CCS(=O)(=O)Nc1cccc(C(=O)N[C@@H]2CCC[C@H](Nc3cc(C(F)(F)F)nc4ccc(Cl)cc34)C2)c1 [Example 4-241] ?
Result: < 100 nM

Q: What value of IC50 has been recorded for this entry: O=C(CN1C(=O)COc2ccccc21)N[C@@H]1CCC[C@H](Nc2cc(C(F)(F)F)nc3ccccc23)C1 (racemic) [Example 4-100]
Result: 1000 to 2500 nM

Q: Returns the measured IC50 for the input compound. Input: O=C(N[C@@H]1CCC[C@H](Nc2cc(C(F)(F)F)nc3ccc(Cl)cc23)C1)c1cccc(F)c1 [Example 4-239]
Result: 100 to 500 nM

Q: What value of IC50 has been reported for the following compound? CC(C)Cc1cc(C(=O)N[C@@H]2CCC[C@H](Nc3cc(C(F)(F)F)nc4ccccc34)C2)n(C)n1 (racemic) [Example 4-90]
Result: 1000 to 2500 nM

Q: What value of measured IC50 is listed for O=C(N[C@@H]1CCC[C@H](Nc2cc(C(F)(F)F)nc3ccc(Cl)cc23)C1)c1cnc(NCCF)nc1 [Example 4-423] ?
Result: < 100 nM

Q: Would you mind telling me what IC50 value was observed for O=C(N[C@@H]1CCC[C@H](Nc2cc(C(F)(F)F)nc3ccc(Cl)cc23)C1)c1ccsn1 [Example 4-425] ?
Result: < 100 nM

Q: Using the record for O=C(N[C@@H]1CCC[C@H](Nc2cc(C(F)(F)F)nc3ccccc23)C1)c1cccc(N2CCCC2=O)c1 [Example 4-172] , report its IC50.
Result: 1000 to 2500 nM

Q: Which IC50 is listed for O=C(N[C@@H]1CCC[C@H](Nc2cc(C(F)(F)F)nc3ccccc23)C1)C1(c2cnccn2)CC1 (racemic) [Example 4-29] ?
Result: 1000 to 2500 nM

Q: Would you kindly share the measured IC50 for N#CC1(C(=O)N[C@@H]2CCC[C@H](Nc3cc(C(F)(F)F)nc4ccccc34)C2)CC1 [Example 4-183] ?
Result: 1000 to 2500 nM

Q: Could you tell me which IC50 is on file for CN(C)c1ncc(C(=O)N[C@@H]2CCC[C@H](Nc3cc(C(F)(F)F)nc4ccc(Cl)cc34)C2)s1 [Example 4-422] ?
Result: < 100 nM

----------
Assay Procedure: Mouse Pharmacokinetics Studies
Type: in vivo
Test Conditions: mouse; male C57BL/6 mice, 50 mg/kg oral gavage, non-fasted, plasma; read-out: PK: Tmax
Reported Endpoint: Tmax (h)
# unit: h | format: bare number

Q: Any idea what its Tmax is? The molecule is O=C(N[C@@H]1CCC[C@H](Nc2cc(C(F)(F)F)nc3ccc(Cl)cc23)C1)N1CC2(CC2)C1 [Example 6-9]
Result: 3.3

----------
Test System: UniProt:Q96LB1
Assay Procedure: MRGPR X2 activity, IP-One Gq HTRF antagonist assay versus 0.3 μM Cortistatin-14
Test Conditions: CHO cells expressing human MRGPR X2; versus 0.3 μM Cortistatin-14 agonist; IP-1 HTRF; read-out: MRGPRX2 Antagonist Activity
Reported IC50 by item:

// worked examples, IC50 included
> print(dat)
                                   compound         result
1  COc1ccc(C(=O)N[C@@H]2CCC[C@H](Nc3cc(C(F)(F)F)nc4ccc(Cl)cc34)C2)cc1 [Example 1]       < 0.1 µM
2  N#Cc1ccccc1C(=O)N[C@@H]1CCC[C@H](Nc2cc(C(F)(F)F)nc3ccccc23)C1 [Example 3-6]  0.1 to 0.5 µM
3  COc1ccc(COc2cc(C(=O)N[C@@H]3CCC[C@H](Nc4cc(C(F)(F)F)nc5ccccc45)C3)on2)cc1 (racemic) [Example 4-35]    1 to 2.5 µM

Q: // IC50 lookup, key: O=C(N[C@@H]1CCC[C@H](Nc2cc(C(F)(F)F)nc3ccc(Cl)cc23)C1)c1cnn(C(F)F)c1 [Example 4-399]
Result: < 0.1 µM
